Hey, just so you know, these numbers are from patent US7435837B2.

EXPERIMENTAL_TARGET: human 5-hydroxytryptamine-2C (h5-HT2C) receptor (Homo sapiens, UniProt P28335)
Construct: expressed in transfected cells; host or cells: CHO (Chinese Hamster Ovary) cells; membranes
Sequence (P28335 33-458): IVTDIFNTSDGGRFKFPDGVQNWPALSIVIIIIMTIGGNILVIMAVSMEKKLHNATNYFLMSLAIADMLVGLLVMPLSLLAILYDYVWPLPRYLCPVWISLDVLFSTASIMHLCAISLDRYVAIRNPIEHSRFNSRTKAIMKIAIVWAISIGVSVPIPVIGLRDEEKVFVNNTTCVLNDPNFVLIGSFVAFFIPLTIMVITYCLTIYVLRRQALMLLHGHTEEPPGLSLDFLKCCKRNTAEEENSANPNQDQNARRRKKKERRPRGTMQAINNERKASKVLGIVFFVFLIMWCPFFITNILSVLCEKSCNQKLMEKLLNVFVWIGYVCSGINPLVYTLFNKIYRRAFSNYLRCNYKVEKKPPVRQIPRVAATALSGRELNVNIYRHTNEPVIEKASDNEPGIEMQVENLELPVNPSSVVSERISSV
METHOD_SUMMARY: [125I]DOI binding to membranes of CHO cells expressing the human 5-HT2C receptor
CONDITION_NOTES: [125I]DOI radioligand, CHO cell membranes, room temperature 60 min; read-out: 5-HT2C Affinity Ki
TEST_READOUT: Ki (nM)
Write the number in nM without appending the unit.

Fill in: human 5-hydroxytryptamine-2C (h5-HT2C) receptor (Homo sapiens, UniProt P28335) Ki for COc1ccc(-c2cccc3c2OC(CN)C3)cc1 (single isomer, unassigned; (+)) [Example 80] = 1

Fill in: human 5-hydroxytryptamine-2C (h5-HT2C) receptor (Homo sapiens, UniProt P28335) Ki for Cc1cc2c(c(-c3ccccc3Cl)c1)OC(CN)C2 (racemic) [Example 286] = 0.76

Fill in: human 5-hydroxytryptamine-2C (h5-HT2C) receptor (Homo sapiens, UniProt P28335) Ki for NCC1Cc2cccc(-c3ccccc3C(F)(F)F)c2O1 (racemic) [Example 53] = 1

---

What Emax was measured for each of the following?
EXPERIMENTAL_TARGET: human 5-HT2C receptor (Homo sapiens)
METHOD_SUMMARY: 5-HT2C receptor-stimulated calcium mobilization (FLIPR) in CHO cells
Type: cell-based
CONDITION_NOTES: CHO, percentage of the response observed with a maximally effective concentration of 5-HT; read-out: 5-HT2C Function Emax (%)
Write the number in % without appending the unit.

Please fill in: Emax reported for CNCC1Cc2cc(C)cc(-c3ccccc3F)c2O1 (racemic) = 80

Please fill in: Emax reported for CNCC1Cc2cc(C)cc(-c3cccc(OC)c3OC)c2O1 (single isomer, unassigned; (+)) [Example 566] = 70

Please fill in: Emax reported for CNCC1Cc2cc(Cl)cc(-c3cc(Cl)ccc3Cl)c2O1 (single isomer, unassigned; (+)) [Example 562] = 90

Please fill in: Emax reported for COc1cccc(-c2cc(C(F)(F)F)cc3c2OC(CN)C3)c1OC (racemic) = 80

Please fill in: Emax reported for CNCC1Cc2cc(Cl)cc(-c3ccccc3OC)c2O1 (racemic) = 90

Please fill in: Emax reported for Cc1cccc(C)c1-c1cc(Cl)cc2c1OC(CNC(C)C)C2 (racemic) = 70

---

EXPERIMENTAL_TARGET: human 5-HT2C receptor (Homo sapiens, UniProt P28335)
Sequence (P28335 33-458): as above
METHOD_SUMMARY: 5-HT2C receptor-stimulated calcium mobilization (FLIPR) in CHO cells;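 also: Fluo-3-AM fluorescence read on FLIPR every 1 s, agonist added after 10 baseline reads, response taken as peak minus lowest raw fluorescence count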
Assay type: cell-based
CONDITION_NOTES: CHO, percentage of the response observed with a maximally effective concentration of 5-HT; read-out: 5-HT2C Function Emax (%)
What Emax was measured for each of the following?
Write the number in % without appending the unit.

Please fill in: Emax reported for NCC1Cc2cc(Cl)cc(-c3cccc(F)c3F)c2O1 (single isomer, unassigned; (-)) [Example 245] = 100

Please fill in: Emax reported for CNCC1Cc2cc(OC)cc(-c3cc(Cl)ccc3Cl)c2O1 (racemic) = 90

Please fill in: Emax reported for CNCC1Cc2cccc(-c3cccc(C)c3C)c2O1 (racemic) = 80

Please fill in: Emax reported for Cc1cccc(-c2cc(F)cc3c2OC(CN)C3)c1 (racemic) = 60

Please fill in: Emax reported for Cc1ccc(-c2cc(F)cc3c2OC(CN)C3)cc1 (racemic) = 80

Please fill in: Emax reported for Cc1cccc(C)c1-c1cc(Cl)cc2c1OC(CN(C)C)C2 (racemic) = 70

Please fill in: Emax reported for NCC1Cc2cc(F)cc(-c3ccccc3F)c2O1 (racemic) = 100

Please fill in: Emax reported for Cc1cccc(C)c1-c1cc(Cl)cc2c1OC(CN1CCCC1)C2 (racemic) = 70

Please fill in: Emax reported for NCC1Cc2cccc(-c3cccc(F)c3)c2O1 (racemic) = 100

Please fill in: Emax reported for Cc1cc2c(c(-c3c(Cl)cccc3Cl)c1)OC(CN)C2 (racemic) = 100

Please fill in: Emax reported for COc1ccc(-c2cc(F)cc3c2OC(CN)C3)c(OC)c1 (racemic) = 90

Please fill in: Emax reported for Cc1cccc(C)c1-c1cc(Cl)cc2c1OC(CNCC1CC1)C2 (racemic) = 50

Please fill in: Emax reported for CNCC1Cc2cc(F)cc(-c3ccccc3C)c2O1 (racemic) [Example 440] = 100

Please fill in: Emax reported for Cc1cccc(-c2cccc3c2OC(CN)C3)c1C (racemic) = 90

Please fill in: Emax reported for CNCC1Cc2cc(F)cc(-c3cc(OC)ccc3C)c2O1 (racemic) = 100

Please fill in: Emax reported for CNCC1Cc2cccc(-c3cc(Cl)ccc3C)c2O1 (racemic) = 90

Please fill in: Emax reported for CNCC1Cc2cccc(-c3cccc(OC)c3OC)c2O1 (racemic) = 70

Please fill in: Emax reported for COc1ccc(Cl)cc1-c1cc(Cl)cc2c1OC(CN)C2 (racemic) = 80

Please fill in: Emax reported for Cc1ccccc1-c1cccc2c1OC(CN)C2 (racemic) [Example 47] = 100

Please fill in: Emax reported for CNCC1Cc2cc(Cl)cc(-c3ccsc3)c2O1 (single isomer, unassigned; (+)) = 80

Please fill in: Emax reported for CNCC1Cc2cc(C)cc(-c3ccccc3OC)c2O1 (racemic) = 80

Please fill in: Emax reported for CNCC1Cc2cc(C(F)(F)F)cc(-c3ccc(OC)cc3OC)c2O1 (racemic) = 90

Please fill in: Emax reported for CNCC1Cc2cc(OC)cc(-c3ccccc3C)c2O1 (racemic) = 90

Please fill in: Emax reported for CNCC1Cc2cccc(-c3ccc(OC)cc3)c2O1 (racemic) = 70

Please fill in: Emax reported for COc1ccc(OC)c(-c2cc(F)cc3c2OC(CN)C3)c1 (racemic) = 80

Please fill in: Emax reported for NCC1Cc2cc(Cl)cc(-c3cccc(F)c3F)c2O1 (racemic) [Example 244] = 90

Please fill in: Emax reported for NCC1Cc2cccc(-c3ccc(Cl)cc3)c2O1 (single isomer, unassigned; (+)) [Example 77] = 100

Please fill in: Emax reported for CNCC1Cc2cc(F)cc(-c3cc(C)ccc3OC)c2O1 (racemic) = 50
